read-out: DNA damage-inducible transcript 3 (DDIT3), DDIT3 (gene 1649); assay: LTEA_HepaRG_DDIT3: Life Technologies and Expression Analysis (LTEA) Assay for DNA damage-inducible transcript 3 (DDIT3) using HepaRG (AID 2283488); conditions: mRNA level, 48 h; actives raise or lower the signal
Calls of active or inactive are those of the source. The calls were made as follows: active = hit-call score of the fitted dose curve at least 0.9, where 1 is the maximum; inactive = score below 0.9.
Classes used: true for active, false for inactive

# molecule, class-label
records = [
    ("CC(C)CCO", "false"),
    ("O=C(O)c1cccc(N(Cc2cccnc2)c2ccc(OC(F)F)c(OC(F)F)c2)c1", "false"),
    ("O=C(CCCCCCCCc1cccnc1)N1CCC(C=C(c2ccccc2)c2ccccc2)CC1", "true"),
]

====

read-out: X-box binding protein 1 (XBP1), XBP1 (gene 7494); assay: LTEA_HepaRG_XBP1: Life Technologies and Expression Analysis (LTEA) Assay for X-box binding protein 1 (XBP1) using HepaRG (AID 2283540); conditions: mRNA level, 48 h; actives raise or lower the signal
Activity calls are given as the source filed them. The calls were made as follows: active = hit-call score of the fitted dose curve at least 0.9, where 1 is the maximum; inactive = score below 0.9.
Classes used: active, inactive

# compound, class-label
rows = [
    ("CCOC(=O)COc1ccc2c(c1)CC(NCC(O)c1cccc(Cl)c1)CC2 (configuration not stated)", "active"),
    ("CCN(C(=O)c1cc(C)cc(OC[C@H](C)Nc2ccncc2)c1)C(C)C", "inactive"),
    ("Cc1ccc(O)cc1", "inactive"),
    ("CCCCCCCCO", "inactive"),
    ("Nc1cccc(N)c1", "inactive"),
    ("CCOc1cccc(-n2cc(C(=O)N3CCN(c4cc(C(=O)O)c5ccccc5c4)CC3)nc2-c2ccc(C)cc2)c1", "active"),
    ("CNCc1ccc(NC(=O)c2c[nH]c3c2C(=O)CCC3)cc1", "inactive"),
]

====

test: ATG_ISRE_CIS: Attagene CIS-FACTORIAL HepG2 Assay for human Interferon Regulatory Factor 1 (IRF1) binding to an Interferon-Stimulated Response Element (ISRE) (AID 2282948); settings: HepG2 ISRE cis-reporter (Attagene), mRNA transcription readout; actives raise or lower the signal
Active and inactive are the calls of the source. Rule for the calls: active = hit-call score of the fitted dose curve at least 0.9, where 1 is the maximum; inactive = score below 0.9.
Classes used: active, inactive

# compound, class-label
measured = [
    ("O=C(O)CC(O)C(=O)O (centres undefined)", "inactive"),
    ("CC(C)CCCCCCOC(=O)c1ccc(C(=O)OCCCCCCC(C)C)c(C(=O)OCCCCCCC(C)C)c1", "inactive"),
    ("CN(C)c1ccc(Cc2ccc(N(C)C)cc2)cc1", "inactive"),
    ("Cn1c(=O)c2c(ncn2C)n(C)c1=O", "inactive"),
    ("CCC(C)(C)C(=O)O[C@H]1C[C@@H](C)C=C2C=C[C@H](C)[C@H](CC[C@@H]3C[C@@H](O)CC(=O)O3)[C@H]21", "inactive"),
    ("CC1(C)C(=O)N(Br)C(=O)N1Br", "inactive"),
    ("CCCCCCCCCCCCCCCO", "inactive"),
    ("Cc1[nH]cnc1C[C@H]1CCc2c(C)c3ccccc3n2C1=O", "active"),
    ("CC(C)(O)c1coc(S(=O)(=O)NC(=O)Nc2c3c(cc4c2CCC4)CCC3)c1", "inactive"),
    ("O=C(O)CCN(C1(C(=O)NO)CCCC1)S(=O)(=O)c1ccc(Oc2ccc(F)cc2)cc1", "inactive"),
    ("CC(C)=CCC/C(C)=C\\CO", "inactive"),
    ("O=C(CCCCCCCCc1cccnc1)N1CCC(C=C(c2ccccc2)c2ccccc2)CC1", "active"),
    ("CCOCCO", "inactive"),
    ("O=P(OC(CCl)CCl)(OC(CCl)CCl)OC(CCl)CCl", "active"),
]

Origin of values: PubChem BioAssay (EPA / NIEHS)
